- assay-comment: NCI Yeast Anticancer Drug Screen. Data for the rad50 strain (AID 155)
- experimental-conditions: S. cerevisiae rad50 strain growth inhibition; at 50.0 µM
This is part of a sample that, as a whole, favours compounds with a hit. Of some 79,000 tested, about 15% had one in any assay. Active and inactive are the calls of the source. Rule as the data show it: active = growth inhibition above about 70%; inactive = the rest.
Outcome codes: active, inactive

[[record]]
compound = "C1=CC(c2ccccc2)C(c2ccccc2)C(c2ccccc2)=C1 (stereo not given)"
group_label = "inactive"

[[record]]
compound = "Cc1cc(OC(=O)c2ccc(N)cc2)ccc1C1=NCC(C)S1 (stereo not given)"
group_label = "inactive"

[[record]]
compound = "c1csc(-c2cc(-c3cccs3)c(-c3ccsc3)s2)c1"
group_label = "inactive"

[[record]]
compound = "O=S(=O)(c1ccccc1)N1CCCCC1"
group_label = "inactive"

[[record]]
compound = "CN(C)CCCN=C(N)N"
group_label = "inactive"

[[record]]
compound = "CCCCCCOC(=O)CCCCCC1CCCCC1"
group_label = "inactive"

[[record]]
compound = "Oc1ccc(-c2nc(-c3ccccc3)c(-c3ccccc3)[nH]2)cc1"
group_label = "inactive"

[[record]]
compound = "OC1CCCC1c1ccccc1 (stereo not given)"
group_label = "inactive"

[[record]]
compound = "O=C(C[n+]1ccccc1Br)c1ccc(I)cc1"
group_label = "inactive"

[[record]]
compound = "CN(C)c1ccc(/C=C2\\Cc3ccccc3C2=O)cc1Br"
group_label = "inactive"

[[record]]
compound = "C=CCCCCCCCCC(=O)N(CC#N)CC(C)C"
group_label = "active"

[[record]]
compound = "Cc1c(/C=N/O)nc2ccccc2c1C(=O)O"
group_label = "inactive"

[[record]]
compound = "C#CCCOC1(OC)N=NC(C)(C)O1 (stereo not given)"
group_label = "inactive"

[[record]]
compound = "O=S1(=O)NC2CCC3NS(=O)(=O)NC4CCC(N1)N4S(=O)(=O)N23 (stereo not given)"
group_label = "inactive"

[[record]]
compound = "c1ccc(C2=NN3CN(N2)c2ccccc2OCCCOc2ccccc23)cc1"
group_label = "inactive"

[[record]]
compound = "O=C(OCCN1C(=O)c2cccc3c(Br)ccc(c23)C1=O)OCc1ccccc1"
group_label = "active"

[[record]]
compound = "CCOc1cccc2c1N[S@@](=O)S2"
group_label = "inactive"

[[record]]
compound = "CSCCC(C(=O)O)N(CC1(O)OCC(O)C(O)C1O)N=O (stereo not given)"
group_label = "inactive"

[[record]]
compound = "COC12NC(=O)NC(=O)C1(c1ccccc1)CC(C)O2 (stereo not given)"
group_label = "inactive"

[[record]]
compound = "Cc1cc2c(=O)cc(-c3ccncc3)oc2c(C(N)=O)c1C"
group_label = "inactive"

[[record]]
compound = "CN(C(N)=O)C1CCCC1"
group_label = "inactive"

[[record]]
compound = "CCN(/N=C1\\CC2C=CCN(C2)C(=O)Cc2c1[nH]c1ccccc21)S(=O)(=O)c1ccc(C)cc1 (stereo not given)"
group_label = "inactive"

[[record]]
compound = "CCCCC1(O)c2ccc3ccccc3c2C(O)(CCCC)c2cccc(-c3ccccc3)c21 (stereo not given)"
group_label = "inactive"

[[record]]
compound = "CS(=O)(=O)OCC1CCCCCCCCCCC12SCCCS2 (stereo not given)"
group_label = "inactive"

[[record]]
compound = "CC(=O)OCC(OC(C)=O)C(OC(C)=O)C(/C=C/N=[N+]([O-])c1ccccc1)OC(C)=O (stereo not given)"
group_label = "inactive"

